System: M14 melanoma
Test: NCI tumour cell line growth inhibition, 48 h
METRIC_NAME: TGI (µM)
Record the value in µM, omitting the unit from your answer.

COMPOUND: O=C1Nc2ccc(O)cc2/C1=C\c1ccncc1
TGI, µM: 39.6

Assign TGI to the following record: COC(=O)CC1C2(C)C3=C(C)C(c4ccoc4)CC3OC2C2OC(=O)C3(C)C=CC(=O)C1(C)C23 (stereo not drawn)
3.25

---

Test system: MDA-N
Assay: NCI tumour cell line growth inhibition, 48 h
METRIC_NAME: TGI

Assign TGI to the following record: COC(=O)CC1C2(C)C3=C(C)C(c4ccoc4)CC3OC2C2OC(=O)C3(C)C=CC(=O)C1(C)C23 (stereo not drawn)
2.93 µM

Assign TGI to the following record: CCC1(OC(=O)CNC)C(=O)OCc2c1cc1n(c2=O)Cc2cc3ccccc3nc2-1 (stereo not drawn)
0.386 µM

Assign TGI to the following record: `CCCC(=O)N(C)N=Nc1ccc(C(=O)OCC)cc1`
> 100 µM

---

System: HOP-62 NSCLC
Experiment: NCI tumour cell line growth inhibition, 48 h
Reported TGI values follow for various compounds

COMPOUND: O=[N+]([O-])c1ccc(NNN=Nc2ccc(-c3nc4ccccc4[nH]3)cc2)c([N+](=O)[O-])c1
TGI: > 100 µM

Assign TGI to the following record: COc1ccc(C2CC(c3ccccc3)=NN2C(=O)c2cc(OC)c(OC)c(OC)c2)cc1O (centres undefined)
5.21 µM

Assign TGI to the following record: CCOC(=O)C1=C(C)NC(C)=C(C(=O)OCCNC(=O)c2ccc(N=[N+]=[N-])cc2)C1c1ccccc1C(F)(F)F (centres undefined)
> 21.5 µM

Assign TGI to the following record: `CC[O-].CC[O-].COc1ccc(C(=O)[CH-]C(C)=O)cc1OC.COc1ccc(C(=O)[CH-]C(C)=O)cc1OC.[Ti+4]`
> 100 µM

---

Tested on: MOLT-4 leukemia
Experiment: NCI tumour cell line growth inhibition, 48 h
Reported TGI values follow for various molecules
Record the value in µM, omitting the unit from your answer.

Consider the reported TGI for these molecules:
MOLECULE: N#CC(NNC(=O)c1c(Cl)c(Cl)c(Cl)c(Cl)c1-c1nc2ccc(C(=O)c3ccccc3)cc2[nH]1)c1ccccc1 (centres undefined)
TARGET_DESC: MOLT-4 leukemia
TGI, µM: 27.7

MOLECULE: C/C=C(\C)c1cc(=O)c2c(C)cc3c(c2o1)C(OC)(OC(C)=O)c1c(O)c(C2CC(C)(N(C)C)C(OC(C)=O)C(C)O2)cc(C2CC(N(C)C)C(OC(C)=O)C(C)O2)c1C3=O (centres undefined)
TARGET_DESC: MOLT-4 leukemia
TGI, µM: 10.3

MOLECULE: COc1ccc(C2CC(c3ccccc3)=NN2C(=O)c2cc(OC)c(OC)c(OC)c2)cc1O (centres undefined)
TARGET_DESC: MOLT-4 leukemia
TGI, µM: 16.2

MOLECULE: N#Cc1sc2c(c1OC(=O)c1ccc(Cl)cc1)c(=O)n(-c1ccccc1)c(=S)n2-c1ccccc1
TARGET_DESC: MOLT-4 leukemia
TGI, µM: 68.7

Assign TGI to the following record: `COC(=O)[C@H](C)NC(=O)C1(CNC(=O)[C@H](C)NC(=O)OC(C)(C)C)Cc2ccccc2-c2ccccc2C1`
37.6

---

Reported TGI values follow for various molecules
System: UACC-257 melanoma
Assay: NCI tumour cell line growth inhibition, 48 h
Record the value in µM, omitting the unit from your answer.

STRUCTURE_NOTATION: CC(=O)c1cc2c(s1)C(=O)c1ccsc1C2=O
TARGET_DESC: UACC-257 melanoma
RESULT_UNIT: µM
TGI: 0.285

// next item, TGI requested
Assign TGI to the following record: `CCCCCCCCCCCCNC(=O)N[C@H](C(=O)N[C@H]1/C=C/CCNC(=O)/C=C/[C@H](C)NC1=O)C(C)C`
1.85

---

Tested on: HCT-15 colon
Experiment: NCI tumour cell line growth inhibition, 48 h
Reported TGI values follow for various compounds
Record the value in µM, omitting the unit from your answer.

COMPOUND: CSC1=C(SC)C(=O)c2cn(C)c(=O)cc2C1=O
METRIC_NAME: TGI
DATA_VALUE: 4.78
//
COMPOUND: CCC1=C[C@@H]2CN(C1)Cc1c([nH]c3ccccc13)[C@@](C(=O)OC)(c1cc3c(cc1OC)N(C)[C@H]1[C@@](O)(C(=O)OC)[C@H](OC(C)=O)[C@]4(CC)C=CCN5CC[C@]31[C@@H]54)C2
METRIC_NAME: TGI
DATA_VALUE: 6.8
//
COMPOUND: O=C(/C=C\c1ccsc1)c1ccccc1
METRIC_NAME: TGI
DATA_VALUE: 14.6

Provide HCT-15 colon TGI reading for `O=C(NC1CCN(Cc2ccccc2)CC1)c1cccc(I)c1` .
35.6

Provide HCT-15 colon TGI reading for `O=C(CN1CCN(CCN2C(=O)c3cccc4cccc(c34)C2=O)CC1)Nc1ccc2ncsc2c1` .
20.1

---

Test system: DU-145 prostate
Assay: NCI tumour cell line growth inhibition, 48 h
Reported GI50 values follow for various compounds

COMPOUND: Nc1nc(=S)c2ncn(C3OC(CO)C(O)C3O)c2[nH]1 (stereo not given)
GI50: 0.542 µM
--
COMPOUND: COc1ccc(/C(=C/c2ccc3ccccc3c2)c2nn[nH]n2)cc1OC
GI50: 3.53 µM
--
COMPOUND: CCC(CC)c1cc(N[C@H]2CC[C@H](N)C2)n2nccc2n1
GI50: 0.708 µM
--
COMPOUND: CCSc1nc(NC(C)c2ccccc2)c2cnn(CO)c2n1 (stereo not given)
GI50: > 100 µM
--
COMPOUND: COc1cccc(CCNC(=O)CC(c2ccccc2)(c2ccccc2)c2ccccc2)c1
GI50: 26.8 µM

Assign GI50 to the following record: `C[C@]12CCCN1CC1=NNC(=O)c3cc(F)cc4[nH]c2c1c34`
32.6 µM

Assign GI50 to the following record: `CN1C(=O)/C(=C2\S/C(=N\c3nnc(-c4ccccc4)o3)NC2=O)c2ccccc21`
> 100 µM

Assign GI50 to the following record: `Cc1cc2c(C(=O)NCC#N)cccc2n1-c1nc2c(c(NCc3ccccc3)n1)CCCC2`
0.384 µM

Assign GI50 to the following record: `Nc1c(C(=O)c2ccc(C#CCN3CCOCC3)cc2)cnn1-c1ccc(F)cc1`
> 25 µM

Assign GI50 to the following record: `Fc1ccc(Nc2ncc(-c3cc(F)c(Cl)cc3Cl)s2)cc1Cl`
9.01 µM

---

Test system: KM12 colon
Test: NCI tumour cell line growth inhibition, 48 h
Reported TGI values follow for various compounds

COMPOUND: CC(C)COC(=O)c1ccc(N=Cc2ccc(C=Nc3ccc(C(=O)OCC(C)C)cc3)cc2)cc1
TARGET_DESC: KM12 colon
TGI: > 100 µM

COMPOUND: CN1C(=S)CSc2ccccc21
TARGET_DESC: KM12 colon
TGI: > 100 µM

COMPOUND: c1ccc(COCC[P+](c2ccccc2)(c2ccccc2)c2ccccc2)cc1
TARGET_DESC: KM12 colon
TGI: 11.1 µM

COMPOUND: OCC(O)C(O)C(O)C(O)CNCCO/N=C1/C(c2c(O)[nH]c3ccccc23)=Nc2ccccc21 (stereo unspecified)
TARGET_DESC: KM12 colon
TGI: > 50 µM

COMPOUND: Cc1ccc(C(=O)O)c(/C=C2\Cc3cc(C)cc(C)c3C2=O)c1
TARGET_DESC: KM12 colon
TGI: > 100 µM

COMPOUND: COc1ccc(-c2[nH]c(-c3ccc(OC)cc3)c(-c3ccccn3)c2-c2ccccn2)cc1
TARGET_DESC: KM12 colon
TGI: > 100 µM

COMPOUND: CC1(c2nc3ccccc3[nH]2)CCC(C#N)C(C)(C)O1 (stereo unspecified)
TARGET_DESC: KM12 colon
TGI: > 100 µM

COMPOUND: CSC1=C(SC)C(=O)c2cn(C)c(=O)cc2C1=O
TARGET_DESC: KM12 colon
TGI: 48.3 µM

Assign TGI to the following record: `Cc1ccc(S(=O)(=O)OCC(=O)Nc2ccc(C(=O)O)c(O)c2)cc1`
199 µM

Assign TGI to the following record: CC(C)(C)C(O)CC(O)(C(F)(F)F)C(F)(F)F (stereo unspecified)
> 100 µM

Assign TGI to the following record: Cc1ccc(N=NN(C)C(C)C(O)Cc2ccccc2)cc1 (stereo unspecified)
> 100 µM

---

Test system: M14 melanoma
Assay: NCI tumour cell line growth inhibition, 48 h; in the data active = GI50 below about 0.43 µM; inactive = the rest
Pick one: active, inactive

COMPOUND: O=c1c2cccc(F)c2sc2c(NCCCNCCO)nc3ccccc3c12
TARGET_DESC: M14 melanoma
CLASS_ASSIGNMENT: inactive
--
COMPOUND: COc1ccc2nc3cc(Cl)ccc3c(NCCNCC(O)CO)c2c1 (stereo not given)
TARGET_DESC: M14 melanoma
CLASS_ASSIGNMENT: inactive
--
COMPOUND: Cc1cc(I)cc(CNCCN2CCOCC2)c1O
TARGET_DESC: M14 melanoma
CLASS_ASSIGNMENT: inactive
--
COMPOUND: C[C@]12CCCN1CC1=NNC(=O)c3cc(F)cc4[nH]c2c1c34
TARGET_DESC: M14 melanoma
CLASS_ASSIGNMENT: inactive

Now, please, on to the next compound.
Could you check what this test reported for `CCCCCCCCCCCCNC(=O)N[C@H](C(=O)N[C@H]1/C=C/CCNC(=O)/C=C/[C@H](C)NC1=O)C(C)C` ?
active
